Biological target: His6-MBP-FXR1P (Homo sapiens, UniProt P51114-2 1-539)
Sequence (P51114 other isoform, or with tags, fused parts or gaps): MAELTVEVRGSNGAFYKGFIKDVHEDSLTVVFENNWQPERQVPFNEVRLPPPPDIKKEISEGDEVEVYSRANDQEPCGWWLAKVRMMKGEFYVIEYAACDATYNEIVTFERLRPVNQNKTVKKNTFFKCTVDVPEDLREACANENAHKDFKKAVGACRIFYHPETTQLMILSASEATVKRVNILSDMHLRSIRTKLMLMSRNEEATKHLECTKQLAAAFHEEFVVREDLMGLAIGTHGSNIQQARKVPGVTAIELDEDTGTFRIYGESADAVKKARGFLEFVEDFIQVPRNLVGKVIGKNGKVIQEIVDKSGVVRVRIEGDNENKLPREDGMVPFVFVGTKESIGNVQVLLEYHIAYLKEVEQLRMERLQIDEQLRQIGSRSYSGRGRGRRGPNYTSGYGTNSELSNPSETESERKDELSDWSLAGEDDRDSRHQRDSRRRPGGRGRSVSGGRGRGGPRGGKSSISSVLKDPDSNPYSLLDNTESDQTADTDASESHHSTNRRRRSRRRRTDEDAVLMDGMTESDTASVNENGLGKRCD
Assay: fluorescence anisotropy; 75 mM K+, 5 mM Mg2+; FA: 20 mM Tris pH 7.5, 75 mM KCl, 5 mM MgCl2, 1 uM BSA, 1 mM DTT, 100 ng/uL tRNA, ~5 nM RNA, RT 1 h; EMSA: 50 mM Tris pH 7.5, 145 mM KCl, 5 mM MgCl2, 1 uM BSA
Details: protein: recombinant; tags: N-terminal His6-MBP; label: 3' fluorescein; G-quadruplex forming
experimental readout: Kd (nM)
Respond numerically; units are nM and should not be typed.

Ask: Reported Kd for GGGGGGGGGGGGGGGGGU (structured_RNA) [poly-G17U] : what is it?
Reply: 11.7
